- experiment.notes: viability loss with induced miR-34 in A549 – imaging, A549 dox-inducible miR-34, nuclei and caspase counts, primary screen (AID 1347080); also: test concentration not given here
- assay.setup: A549 miR-34 inducible, Hoechst nuclei count, 48 h; measured here: total cells without miR-34 induction
true (1) means recorded cell count is 7000 or above; false (0) means it is below 7000.

Solved cases below.
INSERT INTO measurements (molecule, assigned_class) VALUES
  ('CCNC(=O)[C@H]1O[C@@H](n2cnc3c(N)nc(NCCc4ccc(CCC(=O)O)cc4)nc32)C(O)[C@H]1O (some centres not stated)', 'true (1)'),
  ('COc1ccc(CCCOc2cc(CCn3ccnc3)ccc2OC)cc1', 'false (0)'),
  ('O=C(O)CCCNC(=O)NC1CCCCC1', 'true (1)');

q: Please indicate if the recorded cell count for N#C/C(=C\c1cc(Cl)cc(Cl)c1)c1cccnc1 meets or exceeds 7000.
a: false (0)

q: Please indicate if the recorded cell count for O=C(C=Cc1ccc(O)cc1)c1ccc(O)cc1O meets or exceeds 7000.
a: true (1)

q: Please indicate if the recorded cell count for O=C(Nc1ncc(SCCN2CCCC2)s1)[C@]1(c2ccc(S(=O)(=O)C3CC3)cc2)CC1C1CCCCC1 (some centres not stated) meets or exceeds 7000.
a: false (0)
